Provenance of the data: ChEMBL document CHEMBL3886941

- Measurement Target: Transient receptor potential M8 protein (Canis lupus familiaris)
- Sequence (Q1A7N1 whole entry): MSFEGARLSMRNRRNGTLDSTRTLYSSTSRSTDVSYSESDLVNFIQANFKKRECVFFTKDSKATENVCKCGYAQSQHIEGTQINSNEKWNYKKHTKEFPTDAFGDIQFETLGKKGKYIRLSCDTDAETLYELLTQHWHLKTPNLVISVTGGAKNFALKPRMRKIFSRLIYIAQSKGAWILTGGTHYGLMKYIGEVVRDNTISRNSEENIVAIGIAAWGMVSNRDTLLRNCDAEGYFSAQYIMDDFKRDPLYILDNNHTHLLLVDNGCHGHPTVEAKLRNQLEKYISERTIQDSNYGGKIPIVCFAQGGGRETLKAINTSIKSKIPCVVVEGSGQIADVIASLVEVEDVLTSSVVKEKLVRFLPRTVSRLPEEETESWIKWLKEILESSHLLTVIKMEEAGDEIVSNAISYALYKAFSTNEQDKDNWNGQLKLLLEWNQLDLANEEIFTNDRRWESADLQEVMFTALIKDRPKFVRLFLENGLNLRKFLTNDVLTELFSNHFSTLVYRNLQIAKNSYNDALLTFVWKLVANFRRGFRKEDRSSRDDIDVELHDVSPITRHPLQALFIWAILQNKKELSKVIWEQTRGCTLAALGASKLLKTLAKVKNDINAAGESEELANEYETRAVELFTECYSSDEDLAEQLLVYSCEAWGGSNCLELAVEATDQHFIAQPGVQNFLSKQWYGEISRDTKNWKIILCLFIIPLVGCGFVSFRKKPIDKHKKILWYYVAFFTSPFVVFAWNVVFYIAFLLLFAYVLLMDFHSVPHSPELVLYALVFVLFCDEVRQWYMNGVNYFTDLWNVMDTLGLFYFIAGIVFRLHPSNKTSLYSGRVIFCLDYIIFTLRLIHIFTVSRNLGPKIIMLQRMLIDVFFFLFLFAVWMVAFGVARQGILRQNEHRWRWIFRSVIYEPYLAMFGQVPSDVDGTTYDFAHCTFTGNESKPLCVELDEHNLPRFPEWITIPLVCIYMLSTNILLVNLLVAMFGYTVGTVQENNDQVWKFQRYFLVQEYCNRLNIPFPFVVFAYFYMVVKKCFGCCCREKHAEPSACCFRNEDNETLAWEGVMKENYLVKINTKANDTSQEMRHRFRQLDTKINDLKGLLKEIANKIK
- Test Name: Functional Assay: The functional activity of compounds of the formula (I) was determined by measuring changes in intracellular calcium concentration using a Ca2+-sensitive fluorescent dye. The changes in fluorescent signal were monitored by a fluorescence plate reader, either a FLIPR (Molecular Devices) or FDSS (Hamamatsu). Increases in intracellular Ca2+ concentration were readily detected upon activation with icilin.At 24 hrs prior to assay, HEK293 cells stably expressing canine TRPM8 were seeded in culture medium in black wall, clear-base poly-D-lysine coated 384-well plates (BD Biosciences, NJ, USA) and grown overnight in 5% CO2 at 37° C. On assay day, growth media was removed and cells were loaded with Calcium 3 Dye (Molecular Devices) for 35 min at 37° C., under 5% CO2 and then for 25 min at room temperature and atmosphere. Subsequently, cells were tested for agonist-induced increases in intracellular Ca2+ levels using FLIPR or FDSS. Cells were challenged with a compound of the Formula (I) (at varying concentrations) and intracellular Ca2+ was measured for 5 min prior to the addition of icilin to all wells to achieve a final concentration that produces approximately an 80% maximal response. EC50 or IC50 values for compounds of the present invention were determined from eight-point dose-response studies.
pIC50: −log10 of the molar value.
Observed Property: pIC50

- Compound: "O=S(=O)(c1ccccc1)N(CCc1ccccc1)c1sc2ccccc2c1Cl"
  Quantitative Result: 7.62
- Compound: "Cc1c(N(Cc2cc(Cl)ccc2Cl)S(=O)(=O)c2ccc(C(=O)O)cc2)sc2ccccc12"
  Quantitative Result: 8.05
- Compound: "O=S(=O)(c1ccc(-c2nnn[nH]2)cc1)N(CCCCC(F)(F)F)c1sc2ccccc2c1Br"
  Quantitative Result: 8.06
- Compound: "CCCCN(c1sc2ccccc2c1C(C)O)S(=O)(=O)CC (stereo not given)"
  Quantitative Result: 7.42
- Compound: "O=[N+]([O-])c1cccc(CN(c2sc3ccccc3c2Br)S(=O)(=O)c2ccccc2)c1"
  Quantitative Result: 7.98
- Compound: "O=S(=O)(c1ccc(-c2nnn[nH]2)cc1)N(CCC(F)(F)F)c1sc2ccccc2c1Br"
  Quantitative Result: 7.72
- Compound: "Cc1c(N(Cc2ccc3c(c2)OC(F)(F)O3)S(=O)(=O)c2ccc(C(=O)O)cc2)sc2ccccc12"
  Quantitative Result: 8.70
- Compound: "O=S(=O)(c1ccc(-c2nnn[nH]2)cc1)N(CCC1CC1)c1sc2ccccc2c1Br"
  Quantitative Result: 8.22
- Compound: "COc1ccc(CN(c2sc3ccccc3c2C)S(=O)(=O)c2ccc(C(=O)O)cc2)cc1OC"
  Quantitative Result: 8.22
- Compound: "Cc1c(N(Cc2ccccc2)S(=O)(=O)c2ccc(C(=O)O)cc2)sc2ccccc12"
  Quantitative Result: 8.40
